Method Description: qHTS for Inhibitors of human tyrosyl-DNA phosphodiesterase 1 (TDP1): qHTS in cells in presence of CPT; further: nearly all actives have a fitted effect of over 55% in size
Run Parameters: chicken DT40 Tdp1-/-;hTDP1 cells + 20 nM CPT, ATP luminescence, 48 h; series mostly up to 46.2 µM
About 50,000 (12%) of roughly 420,000 compounds were called active. Not shown: some 26% with an inconclusive outcome. The call rests on the fitted dose curve; in most records, active means well fitted inhibition curve with a large enough effect; inconclusive means small, poorly fitted or top-dose-only effect; inactive means flat fitted curve, though single readings scatter. Many of the other results were omitted from the sample, so actives are more common in it than they were.
Labels: class 1 for active, class 0 for inactive

* CC1(C)CN(c2ccc(-c3ccnc4ncnn34)cc2)C1=O | class 0
* COc1cc(NC(=O)CCNC(=O)Cn2ccc3ccccc3c2=O)cc(OC)c1OC | class 0
* Cc1nc2ccccc2c2oc(C(=O)NCCCN3CCC(C)CC3)cc12 | class 0
* O=C(CCn1c(=S)[nH]c2ccccc2c1=O)NCCCN1CCCC1=O | class 0
* Cc1cc(NC(=O)COc2ccc([N+](=O)[O-])cc2)no1 | class 0
* CC1(c2ccc(Cl)cc2Cl)NC(=O)N(CC(=O)Nc2cccnc2Cl)C1=O (stereo not given) | class 0
* CC(C)(C)S(=O)(=O)N1Cc2cc(CO)cc(CCO)c2[C@H]1CCO | class 0
* Cc1ccc(C)c(N2CCN(C(=O)CCCCn3c(=O)[nH]c4ccccc4c3=O)CC2)c1 | class 1
* O=C(CCCCCn1c(=O)[nH]c2ccccc2c1=O)NCCc1c[nH]c2ccccc12 | class 0
* CCN(CC)CCNC(=O)CCCCCn1c(=O)[nH]c2cc(C(=O)OC)ccc2c1=O | class 0

---

Method Description: qHTS for Inhibitors of human tyrosyl-DNA phosphodiesterase 1 (TDP1): qHTS in cells in presence of CPT; further: nearly all actives have a fitted effect of over 55% in size
Run Parameters: chicken DT40 Tdp1-/-;hTDP1 cells + 20 nM CPT, ATP luminescence, 48 h; series mostly up to 46.2 µM
Screen size: about 420,000 compounds; about 50,000 (12%) were called active. Inconclusive results (about 26%) are left out. Calls follow the shape of the dose curve; as a rule, active = well fitted inhibition curve with a large enough effect; inconclusive = small, poorly fitted or top-dose-only effect; inactive = flat fitted curve, though single readings scatter. The sample holds actives, similar compounds and a random draw of the others, so the mix is not that of the screen.
Labels: active, inactive

- Brc1ccccc1C1Nc2cccc3cccc(c23)N1: inactive
- CCCC(C)NC(=O)C1CCN(C(=O)C2CC(=O)N(c3ccc(C)cc3)C2)CC1 (stereo unspecified): inactive
- CC(CC(=O)Nc1ccc(F)cc1F)S(=O)(=O)c1ccc2c(c1)NC(=O)CO2 (stereo unspecified): inactive
- CN1/C(=C\C(=O)c2cccnc2Cl)C(C)(C)c2ccccc21: active
- Cc1ccc(C2Nc3cccc4cccc(c34)N2)cc1: active
- Cc1cc2nnc(SCC(=O)N3CCN(c4ccccc4)CC3)n2c(N)n1: inactive
- Cc1ccc(CNC(=O)c2cccnc2Cl)cc1: inactive
- COc1cccc(C2Nc3cccc4cccc(c34)N2)c1: inactive
- CCn1c2c(c(=O)n3ncc(C(=O)N4CCN(c5ccccc5)CC4)c13)CN(Cc1ccc(OC)cc1)CC2: active
- CCn1c(CNC(=O)c2ccccc2)nnc1SCC(=O)N1CCN(c2ccccc2)CC1: inactive
- O=C(O)c1cc([N+](=O)[O-])c(Nc2cccc3ccccc23)c([N+](=O)[O-])c1: inactive

---

Method Description: qHTS for Inhibitors of human tyrosyl-DNA phosphodiesterase 1 (TDP1): qHTS in cells in presence of CPT; further: nearly all actives have a fitted effect of over 55% in size
Run Parameters: chicken DT40 Tdp1-/-;hTDP1 cells + 20 nM CPT, ATP luminescence, 48 h; series mostly up to 46.2 µM
Among all 420,000 compounds or so, about 50,000 (12%) were called active. Roughly 26% stayed inconclusive and do not appear here. The call rests on the fitted dose curve; in most records, active means well fitted inhibition curve with a large enough effect; inconclusive means small, poorly fitted or top-dose-only effect; inactive means flat fitted curve, though single readings scatter. The list comes from a sample in which actives are over-represented; it also holds close analogues and randomly drawn compounds.
Labels: active, inactive

- O=C(Cc1ccccn1)c1ccc(O)cc1O: inactive
- CN(C)S(=O)(=O)c1ccc(N2CCCC2)c(C(=O)Nc2cccc(F)c2)c1: inactive
- CO[C@H]1[C@@H]2C=CO[C@@H](O[C@H]3O[C@@H](CO)[C@H](O)[C@@H](O)[C@@H]3O)[C@@H]2[C@@]2(CO)O[C@@H]12: inactive
- COc1ccc(F)cc1C(=O)C1CCCN(C(=O)CCc2ccccn2)C1 (stereo not given): active
- CCN(CC)S(=O)(=O)c1ccc2[nH]c(=O)cc(C(=O)N(C)C3CCS(=O)(=O)C3)c2c1 (stereo not given): inactive
- O=C(Nc1ccccc1)/C(=C/c1ccc([N+](=O)[O-])cc1)NC(=O)c1ccccc1: inactive
- COc1ccc(C(=O)NC2CCN(C(=S)NCCc3ccccc3)CC2)cc1: inactive
- CSCC(=O)N1CCCC(C(=O)c2cc(F)ccc2F)C1 (stereo not given): inactive
- COC(=O)c1ccc(NC(=O)CSc2nncn2-c2cccnc2)cc1: inactive
- Cc1ccc(CC2CC(=O)N(c3cc(C)ccc3C)C2=O)cc1 (stereo not given): inactive

---

Method Description: qHTS for Inhibitors of human tyrosyl-DNA phosphodiesterase 1 (TDP1): qHTS in cells in presence of CPT; further: nearly all actives have a fitted effect of over 55% in size
Run Parameters: chicken DT40 Tdp1-/-;hTDP1 cells + 20 nM CPT, ATP luminescence, 48 h; series mostly up to 46.2 µM
Among all 420,000 compounds or so, about 50,000 (12%) were called active. Roughly 26% stayed inconclusive and do not appear here. Calls follow the shape of the dose curve; as a rule, active = well fitted inhibition curve with a large enough effect; inconclusive = small, poorly fitted or top-dose-only effect; inactive = flat fitted curve, though single readings scatter. Shown is part of a subset that was picked to be rich in actives.
Labels: active, inactive

- COC(=O)/C(=C\Nc1ccccc1)NC(=O)c1ccc(Cl)cc1Cl: inactive
- NC(=O)c1ncn([C@@H]2O[C@H](CNCc3cnc(N4CCOCC4)s3)[C@@H](O)[C@H]2O)n1: inactive
- COc1cccc(/C=C2/SC(=S)N(CC(=O)NC3C=CS(=O)(=O)C3)C2=O)c1 (stereo not given): inactive
- Nc1nc(SCC(=O)NNc2c(Cl)cc(Cl)cc2Cl)n[nH]1: inactive
- CC(C)c1nnc(NC(=O)C2CC(=O)N(CCc3ccc(F)cc3)C2)s1 (stereo not given): inactive
- CCc1ccc(NC(=O)CCNS(=O)(=O)c2cccs2)cc1: inactive
- C/C(=N\NC(=O)C1(C)CC1(Br)Br)c1ccc(C)cc1C (stereo not given): inactive
- CCC1CCCCN1C(=S)NC(=O)c1ccco1 (stereo not given): inactive
- COc1cccc(/C=C2\SC(=S)N(CCCC(=O)N3CCOCC3)C2=O)c1: active
- CCC(C)(C)NC(=O)CN(C(=O)C(=O)Nc1ccc2c(c1)OCCO2)C(C)(C)CC: inactive

---

Method Description: qHTS for Inhibitors of human tyrosyl-DNA phosphodiesterase 1 (TDP1): qHTS in cells in presence of CPT; further: nearly all actives have a fitted effect of over 55% in size
Run Parameters: chicken DT40 Tdp1-/-;hTDP1 cells + 20 nM CPT, ATP luminescence, 48 h; series mostly up to 46.2 µM
The campaign covered roughly 420,000 compounds. About 50,000 (12%) were called active. Another 26% or so got no clear call; they are omitted. Calls come from the whole dose curve; as a rule, active = well fitted inhibition curve with a large enough effect; inconclusive = small, poorly fitted or top-dose-only effect; inactive = flat fitted curve, though single readings scatter. For the sample, actives were picked, then their nearest neighbours and some compounds at random.
Labels: 1 for active, -1 for inactive

- O=C(c1ccc(CN2CCOCC2)cc1)N1CCN(c2ccccc2F)CC1: -1
- O=C(NCCS(=O)(=O)NCc1ccc(Cl)cc1)c1ccccc1: -1
- CC(=O)c1ccccc1NC(=O)C1CC(=O)N(c2ccc3c(c2)OCCO3)C1 (configuration not stated): -1
- Cc1c(Cl)cccc1NC(=O)NCc1ccc(C)n1C: -1
- CCOc1ccccc1NC(=S)N1CCN(c2cccc(C)c2C)CC1: 1
- Cc1nn(-c2ccccn2)c2c1C(c1ccncc1)C1=C(CC(C)(C)CC1=O)N2 (configuration not stated): 1
- O=C(/C=C/[C@H]1O[C@@H](n2cnc3c(NC(=O)c4ccccc4)ncnc32)[C@H](O)[C@@H]1O)NCc1ccccc1: -1
- COc1ccc(-c2csc(C(O)c3cccc(Cl)c3)n2)cn1 (configuration not stated): 1
- O=C1NC[C@H](CCCCN2C[C@H](Cc3ccc(O)cc3)N(CCc3ccccc3)C(=O)C2=O)N(CCc2ccccc2)C1=O: -1
- CCCN(C(=O)COC(=O)CNS(=O)(=O)c1ccc(NC(C)=O)cc1)C1CCS(=O)(=O)C1 (configuration not stated): -1
- COc1ccccc1N1CCN(C(=O)C(=O)N/N=C/c2ccccc2F)CC1: -1
- Cc1nc(N)sc1-c1ccccc1: -1
- O=C(CCc1nc2sc3c(c2c(=O)[nH]1)CCCC3)NCC(=O)Nc1ccccc1Br: -1
- CS(=O)(=O)N(Cc1nc2sc3c(c2c(=O)[nH]1)CCCC3)C1CCCCC1: 1
- O=C(Nc1cccc(Br)c1)C1CC(=O)N(C2CCCC2)C1 (configuration not stated): -1
- Cc1ccc(C(=O)O)cc1N1C(=O)CCCC1=O: -1
- COc1ccccc1N1CCN(/N=C\C(Br)=C\c2ccccc2)CC1: 1
- C=CCn1c(C23CC4CC(CC(C4)C2)C3)n[nH]c1=S: -1
- S=C(NC1CCCCC1)NN1CCOCC1: -1
- S=c1[nH]nc(NCCc2ccccc2)s1: -1
- CCN(CC)CCCNC(=O)Cn1cnc2sc(C)c(S(=O)(=O)N3CCN(c4ncccn4)CC3)c2c1=O: -1
- CC1(C)CC(=O)C2=C(C1)Nc1cc(C(=O)c3ccccc3)ccc1NC2c1ccccn1 (configuration not stated): -1
